Reference for the values: the RNAGym collection of RNA variant scans (doi:10.1073/pnas.2313332121)

Below: a set of entries, each annotated with reported polymerase ribozyme fitness (log ratio).
B1: TPR 5TU (parent)
chain: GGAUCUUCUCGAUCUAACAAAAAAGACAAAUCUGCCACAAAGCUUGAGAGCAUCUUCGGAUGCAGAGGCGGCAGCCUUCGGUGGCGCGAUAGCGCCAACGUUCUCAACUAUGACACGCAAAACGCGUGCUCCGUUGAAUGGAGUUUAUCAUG

Variants of: B1
protocol.description: polymerase ribozyme fitness, log enrichment relative to wild type (log ratio); higher = more active; in vitro selection for triplet polymerase activity
Fewer inactive variants are shown than the library holds.

Consider the following illustrative entries.
{"columns": ["mutant.name", "test.readout", "value.observed"],
 "data": [
  ["C57A C85U", "polymerase ribozyme fitness (log ratio)", -0.0999],
  ["A22C C43U C51U C76A C93A C125G", "polymerase ribozyme fitness (log ratio)", "≤ -4.2"],
  ["A73U G83C G143C", "polymerase ribozyme fitness (log ratio)", "≤ -4.2"],
  ["A12U C85G", "polymerase ribozyme fitness (log ratio)", -1.91]
]}

[in] Item U56G G68C C85A C114A has what recorded polymerase ribozyme fitness (log ratio)?
[out] ≤ -4.2

[in] Requested read-out: polymerase ribozyme fitness (log ratio). Entry: U90G C96A C131G
[out] ≤ -4.2

[in] # polymerase ribozyme fitness (log ratio) lookup, item A49C A89U A138U
[out] ≤ -4.2

[in] Sample A30C G84A A115C C149U — what was its polymerase ribozyme fitness (log ratio)?
[out] ≤ -4.2

[in] // query polymerase ribozyme fitness (log ratio) value for entry U15G A20U G25U C87U C103G U104G A121G G126U U134C C149A
[out] ≤ -4.2

[in] If you can, please state the reported polymerase ribozyme fitness (log ratio) value of A3U A20C A26U C57G C108U .
[out] ≤ -4.2

[in] Recorded polymerase ribozyme fitness (log ratio) of C96U G126A , please.
[out] 0.845

[in] For the variant shown here, G88A C149U , give the reported polymerase ribozyme fitness (log ratio).
[out] -4.04

[in] Which polymerase ribozyme fitness (log ratio) value is on record for G11A A12G C38U A41U C69U G83U ?
[out] -3.51

[in] Please report the recorded polymerase ribozyme fitness (log ratio) for C87G A106G .
[out] -4

[in] Query: polymerase ribozyme fitness (log ratio); subject: G42C C72U
[out] ≤ -4.2

[in] Look at this variant and give its reported polymerase ribozyme fitness (log ratio). C14G A22C A52U C96A A97U G117U
[out] ≤ -4.2

[in] // lookup polymerase ribozyme fitness (log ratio) for G50A C57A A66C G81U G86C A97C
[out] ≤ -4.2

[in] Look up polymerase ribozyme fitness (log ratio): A21C A40C G48A C85A G94C
[out] -2.1
